Taken from paper PMC5540273.

The following compounds are listed with their measured %Inh values.
Tested on: ERK1
Construct: gene MAPK3
Conditions: concentration: 1 μM, replicates: in singlicate; n = 1
Give your result in % as a bare value.

CCS(=O)c1ccc(-c2coc3ccc(-c4nnc(C)o4)cc23)cc1 (stereo not shown); 0

ERK1 / %Inh / O=C(Nc1n[nH]c2nc(-c3ccccc3)c(Br)cc12)C1CC1 [SB-708998] : value?;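 further: KINOMEscan kinase panel screen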
5

One more compound: FC(F)(F)c1ccc(-c2ncn(CCCN3CCOCC3)c2-c2ccncc2)cc1 [SB-217780]
0

One more compound: COc1cccc(C2=C(N(C)c3ccccc3)C(=O)NC2=O)c1 [SB-334865]
7

One more compound: CCCNC(=O)Nc1ccc(Oc2ncnc3ccn(C)c23)cc1
0

One more compound: Nc1n[nH]c2nnc(-c3ccccc3)c(-c3ccccc3)c12 [GW554060]
0

One more compound: COc1cc(Nc2ccnc3ccc(C(F)(F)F)cc23)cc(OC)c1OC [GW577382]
0

One more compound: COc1cc2ncn(-c3cc(OCCCc4ccccc4)c(C(N)=O)s3)c2cc1OC [GSK205189]
5

One more compound: CCn1c(-c2ccoc2)nc2cnccc21 [SB-733887]
0

One more compound: COc1cc2nccc(Nc3cccc(Oc4ccccc4)c3)c2cc1OC.Cl [GW284543]
18

One more compound: CCS(=O)(=O)c1ccc(OC)c(Nc2ncc(-c3ccc(F)cc3)o2)c1.Cl [GW591947]
8

One more compound: COc1ccc(Nc2nccc(N3CCC(NS(=O)(=O)c4ccc(NC(C)=O)cc4)C3)n2)cc1 (stereo not shown) [GSK1379729]
20

One more compound: Cc1nc(N(C)[C@H]2CN(C(=O)CC#N)CC[C@H]2C)c2cc[nH]c2n1
8

One more compound: Cc1cccc(-c2nc(Nc3ccc4c(cnn4C)c3)c3ccccc3n2)n1 [GW876731]
0
